Test system: cabbage looper (Trichoplusia ni (Huebner))
Measurement Protocol: 128 well diet tray insecticidal bioassay, cabbage looper
Setup Conditions: 120 h, read-out: percent control or mortality rate

Compound	mortality at 50 µg/cm2
Cc1ccsc1N(C)C(=O)Nc1nc(OCC(F)(F)F)cc(OCC(F)(F)F)n1 [Compound 31]	< 80%
Cc1csc(N(C)C(=O)Nc2nc(OCC(F)(F)F)cc(OCC(F)(F)F)n2)c1 [Compound 34]	80 to 100%
COc1ccsc1N(C)C(=O)Nc1nc(OCC(F)(F)F)cc(OCC(F)(F)F)n1 [Compound 36]	< 80%
CN(C(=O)Nc1nc(OCC(F)(F)F)cc(OCC(F)(F)F)n1)c1cc(-c2ccc(Cl)cc2)cs1 [Compound 26]	80 to 100%
Cc1ccc(N(C)C(=O)Nc2nc(OCC(F)(F)F)cc(OCC(F)(F)F)n2)s1 [Compound 39]	80 to 100%
O=C(Nc1nc(OCC(F)(F)F)cc(OCC(F)(F)F)n1)Nc1sc(Cl)c(Cl)c1Cl [Compound 44]	80 to 100%
Cc1ccsc1NC(=O)Nc1nc(OCC(F)(F)F)cc(OCC(F)(F)F)n1 [Compound 37]	< 80%
COc1c(Cl)csc1N(C)C(=O)Nc1nc(OCC(F)(F)F)cc(OCC(F)(F)F)n1 [Compound 35]	< 80%
COc1c(Cl)csc1NC(=O)Nc1nc(OCC(F)(F)F)cc(OCC(F)(F)F)n1 [Compound 25]	80 to 100%
CN(C(=O)Nc1nc(OCC(F)(F)F)cc(OCC(F)(F)F)n1)c1cc(C#N)cs1 [Compound 38]	80 to 100%

Where do the numbers come from? From patent US9227957B2.
